test.method.notes: Drug absorption in po dosed human
Assay type: ADME, organism-based
measurement.parameters: in vivo, read-out: Drug absorption

>  <compound>
O=c1c(O)c(-c2ccc(O)c(O)c2)oc2cc(O)cc(O)c12 [QUERCETIN]

>  <Fa, %>
65

$$$$

###

test.method.notes: Oral bioavailability in human
Assay type: ADME, organism-based
measurement.parameters: in vivo
Each entry below carries its recorded bioavailability.

>  <compound>
Cc1c(-c2ccc(O)cc2)n(Cc2ccc(OCCN3CCCCCC3)cc2)c2ccc(O)cc12

>  <bioavailability, %>
6.2

$$$$
>  <compound>
CCc1cccc2c3c([nH]c12)C(CC)(CC(=O)O)OCC3 (configuration not stated)

>  <bioavailability, %>
80

$$$$

Measured values drawn from ChEMBL document CHEMBL3525973 for this set.
